Molecular target: UniProtKB P0C6X1
Sequence (P0C6X1 2966-3267 limits assumed): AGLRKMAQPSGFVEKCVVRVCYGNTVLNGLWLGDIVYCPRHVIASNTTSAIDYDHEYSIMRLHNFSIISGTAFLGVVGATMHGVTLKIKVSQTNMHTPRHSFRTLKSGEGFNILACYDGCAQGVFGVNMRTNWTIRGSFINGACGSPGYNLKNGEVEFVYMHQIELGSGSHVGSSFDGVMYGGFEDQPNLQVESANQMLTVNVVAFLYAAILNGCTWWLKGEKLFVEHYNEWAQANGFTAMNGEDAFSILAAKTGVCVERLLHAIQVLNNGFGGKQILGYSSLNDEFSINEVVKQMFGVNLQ
Assay: 229E mPRO enzymatic assay
Type: biochemical, Human Coronavirus (HCov) 229E
Settings: read-out: 229E mPRO IC50
READOUT: IC50

Lab note: measured IC50 of COc1cccc2[nH]c(C(=O)N[C@@H](CC(C)C)C(=O)N[C@@H](C[C@@H]3CCNC3=O)C(C#N)NCC(=O)O)cc12 (stereo partly drawn) was < 22 µM

// COc1cccc2[nH]c(C(=O)N3CC(C45CC(C4)C5)C[C@H]3C(=O)N[C@H](C#N)C[C@@H]3CCNC3=O)cc12 (single isomer, unassigned) [385 (Isomer 1)] : IC50 value = < 22 µM

IC50 in this record for COc1cccc2[nH]c(C(=O)N[C@@H](CC(C)C)C(=O)N[C@@H](C[C@@H]3CCNC3=O)C(C#N)OC(=O)NC(C)C)cc12 (stereo partly drawn) : > 30 µM

# compound CC(C)(C)OC(=O)N1CCCCC12CCN([C@@H](CC1CC1)C(=O)N[C@H](C#N)C[C@@H]1CCNC1=O)C2=O (single isomer, unassigned) [473 (Isomer 1)] ; its IC50 = > 30 µM

compound COc1cccc2[nH]c(C(=O)N[C@@H](CC(C)C)C(=O)N[C@@H](C[C@@H]3CCNC3=O)C(C#N)Nc3ccccc3)cc12 (stereo partly drawn) , IC50 observed: < 22 µM

// sample COc1cccc2[nH]c(C(=O)N[C@@H](CC(C)C)C(=O)N[C@@H](C[C@@H]3CCNC3=O)C3OC(=O)N(C(C)C)C3=N)cc12 (stereo partly drawn) , its IC50 was > 30 µM
